# EXPERIMENT SUMMARY: A CellTox Green Cytotoxicity Assay to monitor cytotoxicity in HepG2 cells - 0 hour (AID 1224882); further: nearly all actives have a fitted effect of over 35% in size
# MEASUREMENT PARAMETERS: CellTox Green fluorescence; series mostly up to 76.8 µM
Activity calls are given as the source filed them. The call rests on the fitted dose curve; in most records, active means well fitted activation curve with a large enough effect in the repeat runs; inconclusive means weak or mixed curves; inactive means flat fitted curve, though single readings scatter.
Possible outcomes: yes (1) = active, no (0) = inactive

{"COMPOUND": "Cc1cn([C@H]2C[C@H](F)[C@@H](CO)O2)c(=O)[nH]c1=O", "CLASS": "no (0)"}
{"COMPOUND": "CCOC(=O)C(C)O (stereo unspecified)", "CLASS": "no (0)"}
{"COMPOUND": "CC(C)(C)CCCCCCOC(=O)c1ccccc1C(=O)OCCCCCCC(C)(C)C", "CLASS": "no (0)"}
{"COMPOUND": "O=[N+]([O-])c1ccc2ncccc2c1", "CLASS": "no (0)"}
{"COMPOUND": "O=C1NC(=O)c2cccc3cccc1c23", "CLASS": "no (0)"}
{"COMPOUND": "CC(C)(C(=O)c1cccnc1)c1cccnc1", "CLASS": "no (0)"}
{"COMPOUND": "CCOC(=O)N1CCC(Nc2ccc(Cl)cc2N)CC1", "CLASS": "no (0)"}
{"COMPOUND": "CCN(CC)C(=O)N1CCN(C)CC1", "CLASS": "no (0)"}
{"COMPOUND": "Cc1ccc(N(CC2=NCCN2)c2cccc(O)c2)cc1", "CLASS": "no (0)"}
{"COMPOUND": "CSSc1ccoc1C", "CLASS": "no (0)"}
{"COMPOUND": "COc1ccc(C)cc1", "CLASS": "no (0)"}
{"COMPOUND": "CC(C)N=C=NC(C)C", "CLASS": "no (0)"}
{"COMPOUND": "CC[C@H]1OC(=O)[C@H](C)[C@@H](O[C@H]2C[C@@](C)(OC)[C@@H](O)[C@H](C)O2)[C@H](C)[C@@H](O[C@@H]2O[C@H](C)C[C@H](N(C)C)[C@H]2O)[C@](C)(O)C[C@@H](C)C(=O)[C@H](C)[C@@H](O)[C@]1(C)O", "CLASS": "no (0)"}
{"COMPOUND": "CC1CCCC(=O)C1=O (stereo unspecified)", "CLASS": "no (0)"}
{"COMPOUND": "CC(O)Cn1cnc2c1c(=O)n(C)c(=O)n2C (stereo unspecified)", "CLASS": "no (0)"}
{"COMPOUND": "Cc1cc(CCCOc2c(C)cc(-c3noc(C(F)(F)F)n3)cc2C)on1", "CLASS": "no (0)"}
{"COMPOUND": "O=NN(CCCl)C(=O)NCCCl", "CLASS": "yes (1)"}
{"COMPOUND": "CCN(Cc1cccc(S(=O)(=O)O)c1)c1ccc(C(=C2C=CC(=[N+](CC)Cc3cccc(S(=O)(=O)O)c3)C=C2)c2ccc(O)cc2S(=O)(=O)[O-])cc1", "CLASS": "no (0)"}
{"COMPOUND": "CCCCCCCCCCCCCC(=O)OCC(O)CO (stereo unspecified)", "CLASS": "no (0)"}
{"COMPOUND": "CC(C)(O)CCc1ccccc1", "CLASS": "no (0)"}
{"COMPOUND": "CCN(CC)CC(=O)Nc1c(C)cccc1C(=O)OC", "CLASS": "no (0)"}
{"COMPOUND": "BrC(Br)C(Br)Br", "CLASS": "no (0)"}
{"COMPOUND": "CC12CC3CC(C)(C1)CC(N)(C3)C2", "CLASS": "no (0)"}
{"COMPOUND": "CCCCCCOC(=O)CCCCC", "CLASS": "no (0)"}
{"COMPOUND": "Cc1ccc2c(c1[N+](=O)[O-])C(=O)c1ccccc1C2=O", "CLASS": "no (0)"}
{"COMPOUND": "CCOC(=O)Oc1ccc(CCNC(=O)[C@H](CCSC)NC(C)=O)cc1OC(=O)OCC", "CLASS": "no (0)"}

Provenance of the data: PubChem BioAssay (Tox21)
